assay: Rat study: pharmacokinetics, plasma levels by LCMS; assay type: in vivo, Rats (male Sprague Dawley); settings: male, Sprague Dawley, iv, 0.5 mg/kg, single intravenous dose 0.5 mg/kg, average of 6 rats, read-out: Vz (mL/kg), Avg
Property Label: Vd (mL/kg)
// note: answer is a bare numeric in mL/kg

Exam item: Which Vd reading was recorded for the compound CCCC1O[C@@H]2C[C@H]3[C@@H]4CCC5=CC(=O)C=C[C@]5(C)[C@H]4[C@@H](O)C[C@]3(C)[C@]2(C(=O)CO)O1 (stereo partly shown) [Budesonide, budesonide] ?
Marked response: 3740

----------
assay: Rat study: pharmacokinetics, plasma levels by LCMS; format: in vivo, Rats (male Sprague Dawley); conditions: male, Sprague Dawley, iv, 0.5 mg/kg, single intravenous dose 0.5 mg/kg, average of 6 rats, read-out: t1/2 (hr), Avg (converted)
Property Label: half-life (h)
// note: answer is a bare numeric in h

Exam item: Which half-life reading was recorded for the compound CCCC1O[C@@H]2C[C@H]3[C@@H]4CCC5=CC(=O)C=C[C@]5(C)[C@H]4[C@@H](O)C[C@]3(C)[C@]2(C(=O)CO)O1 (stereo partly shown) [Budesonide, budesonide] ?
Marked response: 0.75

----------
assay: Rat study: pharmacokinetics, plasma levels by LCMS; format: in vivo, Rats (male Sprague Dawley); settings: male, Sprague Dawley, iv, 0.5 mg/kg, single intravenous dose 0.5 mg/kg, individual animals, read-out: Cl (mL/hr/kg), individual rats (converted)
Property Label: clearance (mL/h/kg)
// note: answer is a bare numeric in mL/h/kg

Exam item: Which clearance reading was recorded for the compound CCCC1O[C@@H]2C[C@H]3[C@@H]4CCC5=CC(=O)C=C[C@]5(C)[C@H]4[C@@H](O)C[C@]3(C)[C@]2(C(=O)CO)O1 (stereo partly shown) [Budesonide, budesonide] ?
Marked response: 3140

Where do the numbers come from? From patent US20130115293A1.
